Data origin: ChEMBL document CHEMBL5346933

assay: Cytotoxicity against human BJ cells assessed as cell viability at 25 ug/ml incubated for 24 hrs by MTT assay; format: toxicity, cell-based; conditions: at 25 µg/mL, read-out: Activity
EXPERIMENTAL_ENDPOINT: viability at 24 h, 25 ug/ml (%)
One number for each entry, in %.

O=C(Nc1cccc(Cl)c1)NC1CCN(CCC(Oc2cccc(C(F)(F)F)c2)c2ccccc2)CC1 (racemic) = 97

Lab note: next molecule to report on.
In one line, give reported viability at 24 h, 25 ug/ml of the entry O=C(Nc1cccc(Cl)c1)NC1CCN(CCC(Oc2cccc(Cl)c2)c2ccccc2)CC1 (racemic) .
91
